meta.source: patent US20260297027A1

System tested: FGF14:Nav1.6 complex (Homo sapiens, UniProt Q92915+Q9UQD0)
Construct: split firefly luciferase complementation
Sequence (Q92915 1-252 isoform Q92915-2): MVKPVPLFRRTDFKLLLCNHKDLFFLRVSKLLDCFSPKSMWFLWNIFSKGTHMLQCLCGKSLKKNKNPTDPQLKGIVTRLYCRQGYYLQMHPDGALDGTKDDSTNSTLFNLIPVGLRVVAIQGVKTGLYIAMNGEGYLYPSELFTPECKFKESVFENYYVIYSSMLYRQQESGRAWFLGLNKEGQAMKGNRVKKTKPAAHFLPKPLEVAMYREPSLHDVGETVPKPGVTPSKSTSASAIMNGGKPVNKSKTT
Sequence (Q9UQD0 1763-1980 limits assumed): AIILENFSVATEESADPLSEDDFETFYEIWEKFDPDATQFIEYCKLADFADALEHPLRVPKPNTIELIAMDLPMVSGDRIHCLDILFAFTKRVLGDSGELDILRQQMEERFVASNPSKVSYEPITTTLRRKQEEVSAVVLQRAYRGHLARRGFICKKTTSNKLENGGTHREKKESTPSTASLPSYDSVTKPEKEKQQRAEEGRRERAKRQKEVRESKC
Assay comment: Split-luciferase complementation assay (LCA)
Measurement conditions: LCA; read-out: IC50 for modulation of FGF14:Nav1.6 complex formation
Description: To identify small molecule probes targeting the FGF14:Nav1.6 PPI interface, the FGF14:Nav1.6 complex was reconstituted using the split-luciferase complementation assay (LCA), and a candidate pool of ~45,000 commercially available compounds was screened. An established screening pipeline was employed to validate hits. […] FIG. 1B summarizes exclusion of compounds based on the CellTiter Blue (CTB) cell viability fluorescence assay. Primary assays: Split-luciferase complementation assay (LCA). […]
pIC50: −log10 of the molar value.
Measure name: pIC50

pIC50 reading for CCOC(=O)c1cccc(NC(=O)Cn2cc(CO)c3ccccc32)c1 [PW01028] : ~6.60
